# Protocol Notes: yeast transport mutant growth inhibition pilot in 384-well plates, post-Golgi transport modulator project (AID 636); further: test concentration not given here
# Assay Conditions: absorbance 615 nm, about 18 h, hits give high values
Recorded inhibition values for a group of compounds are listed next.
Measured Quantity: inhibition (%)

> print(dat)
                                    compound  measured.quantity  numeric.result
 1  CNC(=O)c1ccccc1NC(=O)c1c(O)c2c([nH]c1=O)CCCC2         inhibition           -1.71
 2  COc1cccc(C2C3=C(N=C4SCC(=O)N42)c2ccccc2CC3)c1OC (configuration not stated)         inhibition           -1.69
 3  CCN(CC)CCCN1C(=O)C(O)=C(C(=O)c2ccco2)C1c1ccc(C)o1 (configuration not stated)         inhibition           -6.89
 4  COc1cc(NC(=O)CN(c2cc(C)cc(C)c2)S(=O)(=O)c2c(C)noc2C)cc(OC)c1         inhibition             0.9
 5  CC(C)(C)NC(=O)CSc1nnc(-c2ccccn2)n1-c1ccccc1         inhibition            -5.2
 6  O=C(c1ccc(CSCc2ccccc2F)o1)N1CCN(c2ccc(N3CCOCC3)nn2)CC1         inhibition             0.9
 7  COc1cc2c(cc1OC)-c1nnc(-c3cccs3)n1C(C)(C)C2         inhibition            0.13
 8  CCOC(=O)c1ccc(NC(=O)CC2SC(=NC)N(C)C2=O)cc1 (configuration not stated)         inhibition           -3.03
 9  Cc1noc(/C=C/N(C)C)c1S(=O)(=O)N1CCCC(C(=O)NC2CCCCC2)C1 (configuration not stated)         inhibition           -3.07
10  Cc1ccnc2c(N3C(=O)C4C5C=CC(C5)C4(C)C3=O)cccc12 (configuration not stated)         inhibition           -3.47
11             COc1ccc(C(=O)Nc2nncs2)c(OC)c1         inhibition           -3.46
12  COc1ccc(C(NC(=O)c2ccco2)c2ccc(OC)c(OC)c2)cc1 (configuration not stated)         inhibition           -8.11
13  COc1cc(C2N3CC4(C)CN2CC(C)(C3)C4)ccc1O (configuration not stated)         inhibition           -0.51
14  O=C(O)C1CC=CCC1C(=O)Nc1cccc(F)c1 (configuration not stated)         inhibition           -2.99
15   COc1cc(/C=N/n2cnnc2)ccc1OCC(=O)N1CCOCC1         inhibition            -0.9
16  CC1=C(C(=O)OC2CCCCCC2)C(c2ccc(C)o2)C2=C(CCCC2=O)N1 (configuration not stated)         inhibition           -1.49
17  COCCNC(=O)c1ccc(CS(=O)(=O)c2c(Cl)cccc2Cl)o1         inhibition           -3.47
18      Cc1cccc(-n2ncc3c(N(CCO)CCO)ncnc32)c1         inhibition            -5.2
19  CC(C)n1c(CN2CCN(C)CC2)nc2c1c(=O)n(C)c(=O)n2C         inhibition           -7.57
20  COc1ccc(Cl)cc1S(=O)(=O)N1CCN(c2ccc(F)cc2)CC1         inhibition            4.23
21  CC(=O)c1cccc(NC(=O)CCNS(=O)(=O)c2cccc3nsnc23)c1         inhibition           -6.58
22      Cc1c(C)n(C)c2ccc(C(=O)NCc3cccs3)cc12         inhibition            -2.8

Source of measurements: PubChem BioAssay
